Target system: Growth hormone secretagogue receptor type 1 (Homo sapiens, UniProt Q92847)
Sequence (Q92847 whole entry): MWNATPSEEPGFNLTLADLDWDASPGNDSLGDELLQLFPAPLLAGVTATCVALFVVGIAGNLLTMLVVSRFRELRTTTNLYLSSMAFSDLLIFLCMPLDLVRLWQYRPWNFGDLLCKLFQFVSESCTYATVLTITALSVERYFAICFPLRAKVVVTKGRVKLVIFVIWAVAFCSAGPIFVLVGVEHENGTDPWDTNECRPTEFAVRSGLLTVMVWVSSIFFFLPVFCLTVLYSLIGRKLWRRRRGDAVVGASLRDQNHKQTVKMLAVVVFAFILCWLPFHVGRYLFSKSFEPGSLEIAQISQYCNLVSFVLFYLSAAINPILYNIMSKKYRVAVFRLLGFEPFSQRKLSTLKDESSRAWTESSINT
Experiment description: SUPPLEMENTARY: Agonist activity at GSHR by FLIPR assay. Same assay as CHEMBL941945
pEC50: −log10 of the molar value.
Response key: class 1 means pEC50 >= 8; class 0 means pEC50 < 8.

Answer whether pEC50 of C[C@@H]1CN(c2ccc(F)c(NS(=O)(=O)c3ccc(-c4cccs4)cc3)c2)C[C@H](C)N1 is greater than or equal to 8.
class 1

Hello, I need to know if COc1ccc(N2C[C@@H](C)N[C@@H](C)C2)cc1NS(=O)(=O)c1cccc2cccnc12 has measured pEC50 not below 8. Thanks!
class 0

Answer whether pEC50 of COc1ccc(N2C[C@@H](C)N[C@@H](C)C2)cc1NS(=O)(=O)c1ccc(-c2ccc(C)s2)cc1F is greater than or equal to 8.
class 1

Is it the case that COc1ccc(NS(=O)(=O)c2ccc(-c3ccc(F)cc3)cc2)cc1N1C[C@@H](C)N[C@@H](C)C1 has pEC50 reaching or exceeding 8?
class 0

I'd appreciate it if you could say whether COc1ccc(NS(=O)(=O)c2ccc(-c3ccc(C)s3)s2)cc1N1C[C@@H](C)N[C@@H](C)C1 has pEC50 at least equal to 8.
class 1

Confirm if pEC50 reported for the molecule COc1ccc(N2C[C@@H](C)N[C@@H](C)C2)cc1NS(=O)(=O)c1ccc2c(Cl)cccc2c1 is 8 or above.
class 1

Decide: pEC50 of C[C@@H]1CN(c2cccc(NS(=O)(=O)c3ccc(-n4cccn4)cc3)c2)C[C@H](C)N1 >= 8?
class 0

Say whether COc1ccc(N2C[C@@H](C)N[C@@H](C)C2)cc1NS(=O)(=O)c1ccc(Cl)c(Cl)c1 shows pEC50 of 8 or more.
class 0

Does COc1ccc(N2C[C@@H](C)N[C@@H](C)C2)cc1NS(=O)(=O)c1cccc(-c2ccoc2)c1 have a reported pEC50 of at least 8?
class 0

In plain terms: is recorded pEC50 at least 8 for COc1ccc(N2C[C@@H](C)N[C@@H](C)C2)cc1NS(=O)(=O)c1ccc(-c2cnco2)cc1 ?
class 0

Is it the case that COc1ccc(N2C[C@@H](C)N[C@@H](C)C2)cc1NS(=O)(=O)c1ccc(-c2cccnc2)s1 has pEC50 reaching or exceeding 8?
class 0

Confirm if pEC50 reported for the molecule COc1ccc(NS(=O)(=O)c2ccc(-c3cc(C)cs3)cc2)cc1N1C[C@@H](C)N[C@@H](C)C1 is 8 or above.
class 1

Kindly determine if pEC50 recorded for COc1ccc(NS(=O)(=O)c2ccc(Br)c(C)c2)cc1N1C[C@@H](C)N[C@@H](C)C1 is above or exactly 8.
class 0

Is pEC50 at least 8? Consider COc1ccc(N2C[C@@H](C)N[C@@H](C)C2)cc1NS(=O)(=O)c1cccc(Br)c1
class 0

Item COc1ccc(N2C[C@@H](C)N[C@@H](C)C2)cc1NS(=O)(=O)c1ccc(-c2ccc(C)s2)s1 with pEC50 of 8 or above?
class 0

Record COc1ccc(N2C[C@@H](C)N[C@@H](C)C2)cc1NS(=O)(=O)c1ccc(-c2ccccc2F)cc1 ; criterion: pEC50 no lower than 8. Met?
class 0

Reported pEC50 at or above 8? COc1ccc(N2C[C@@H](C)N[C@@H](C)C2)cc1NS(=O)(=O)c1ccc(-c2ccsc2)cc1Cl
class 1

Check this molecule for pEC50 at or above 8: COc1ccc(N2C[C@@H](C)N[C@@H](C)C2)nc1NS(=O)(=O)c1ccc(-c2ccoc2)cc1Cl
class 0

Reported pEC50 reaches at least 8 for COc1cc(-c2ccco2)ccc1S(=O)(=O)Nc1cccc(N2C[C@@H](C)N[C@@H](C)C2)c1 ?
class 0

Please tell me: is the molecule COc1ccc(NS(=O)(=O)c2ccc(-c3cccs3)cc2C)cc1N1C[C@@H](C)N[C@@H](C)C1 at or over 8 in terms of pEC50?
class 1

State whether the measured pEC50 reaches 8, counting equality as reaching it, for COc1ccc(N2C[C@@H](C)N[C@@H](C)C2)cc1NS(=O)(=O)c1ccc(-c2ccsc2)cc1
class 1

# check: pEC50 of COc1cc(F)c(N2C[C@@H](C)N[C@@H](C)C2)cc1NS(=O)(=O)c1ccc(-c2ccccn2)s1 is greater than or equal to 8
class 0

Form field: pEC50 at least 8? Entry: Cc1cc(S(=O)(=O)Nc2cc(N3C[C@@H](C)N[C@@H](C)C3)ccc2F)ccc1Br
class 0

Is pEC50 at least 8? Consider C[C@@H]1CN(c2cccc(NS(=O)(=O)c3cccc(Cl)c3Cl)c2)C[C@H](C)N1
class 0

Decide: pEC50 of COc1ccc(NS(=O)(=O)c2ccc(-c3cccs3)s2)cc1N1C[C@@H](C)N[C@@H](C)C1 >= 8?
class 1

Textbook exercise: given the entry C[C@@H]1CN(c2cccc(NS(=O)(=O)c3cc4ccccc4s3)c2)C[C@H](C)N1 , state whether its pEC50 is greater than or equal to 8.
class 0

Is reported pEC50 greater than or equal to 8 here: C[C@@H]1CN(c2ccc(F)c(NS(=O)(=O)c3ccc(-c4ccoc4)cc3)c2)C[C@H](C)N1
class 0

Has Cc1ccc(-c2ccc(S(=O)(=O)Nc3cc(N4C[C@@H](C)N[C@@H](C)C4)ccn3)cc2F)o1 a recorded pEC50 greater than or equal to 8?
class 0

###

Target system: Growth hormone secretagogue receptor type 1 (Homo sapiens)
Experiment description: SUPPLEMENTARY: Agonist activity at GSHR by FLIPR assay. Same assay as CHEMBL941945
Exam item: assign fulfilled to entries whose EC50 is below 20 nM and not fulfilled to entries at or above 20 nM. Note that a value of exactly 20 nM receives not fulfilled.

Please indicate whether the reported EC50 of COc1ccc(N2C[C@@H](C)N[C@@H](C)C2)cc1NS(=O)(=O)c1sc2ccc(F)cc2c1C is strictly below 20 nM.
not fulfilled

Just wondering, is EC50 of COc1ccc(N2C[C@@H](C)N[C@@H](C)C2)cc1NS(=O)(=O)c1ccc(Br)s1 below 20 nM?
not fulfilled

Determine whether this compound shows EC50 lower than 20 nM (ties excluded): Cc1ccc(N2C[C@@H](C)N[C@@H](C)C2)cc1NS(=O)(=O)c1ccc(Br)cc1
not fulfilled

In plain terms, does C[C@@H]1CN(c2ccc(F)c(NS(=O)(=O)c3ccc(-c4cccs4)c(F)c3)c2)C[C@H](C)N1 come in under 20 nM for EC50?
fulfilled

Hello, is EC50 of the following compound strictly smaller than 20 nM? COc1ccc(N2C[C@@H](C)N[C@@H](C)C2)cc1NS(=O)(=O)c1ccc(-c2ccc(C)cc2)s1
not fulfilled

Criterion: EC50 strictly below 20 nM. Is it met by COc1ccc(N2C[C@@H](C)N[C@@H](C)C2)cc1NS(=O)(=O)c1ccc(-c2ccco2)nc1 ?
fulfilled

Please check: EC50 for Cc1ccc(-c2ccc(S(=O)(=O)Nc3ccnc(N4C[C@@H](C)N[C@@H](C)C4)n3)cc2F)o1 , strictly under 20 nM or not?
not fulfilled

Quick check: does COc1ccc(N2C[C@@H](C)N[C@@H](C)C2)cc1NS(=O)(=O)c1ccc(-c2csc(C)c2)cc1 have EC50 under 20 nM?
fulfilled

Item COc1ccc(N2C[C@@H](C)N[C@@H](C)C2)cc1NS(=O)(=O)c1ccc(-c2cnccc2OC)s1 : EC50 beneath 20 nM, strictly?
not fulfilled

# strict comparison: is reported EC50 < 20 nM? input = Cc1ccc(-c2ccc(S(=O)(=O)Nc3cc(N4C[C@@H](C)N[C@@H](C)C4)ccc3O)cc2F)o1
fulfilled

Answer whether the compound COc1ccc(N2C[C@@H](C)N[C@@H](C)C2)cc1NS(=O)(=O)c1cc2cc(Cl)ccc2s1 has EC50 strictly less than 20 nM
not fulfilled

Please let me know if COc1ccc(N2C[C@@H](C)N[C@@H](C)C2)cc1NS(=O)(=O)c1ccc(-c2ccc(C)s2)c(C)c1 shows EC50 below 20 nM.
fulfilled

Please check: EC50 for Cc1csc(-c2ccc(S(=O)(=O)Nc3cc(N4C[C@@H](C)N[C@@H](C)C4)ccc3C)cc2)c1 , strictly under 20 nM or not?
fulfilled

Regarding COc1ccc(N2C[C@@H](C)N[C@@H](C)C2)cc1NS(=O)(=O)c1ccc2ccccc2c1 , kindly confirm whether its EC50 is beneath 20 nM.
fulfilled

Bench note: check whether COc1ccc(N2C[C@@H](C)N[C@@H](C)C2)cc1NS(=O)(=O)c1ccc(-c2cccnc2)cc1 shows EC50 below 20 nM
not fulfilled

###

For each of the molecules below, state its EC50.
Target system: Growth hormone secretagogue receptor type 1 (Homo sapiens, UniProt Q92847)
Experiment description: SUPPLEMENTARY: Agonist activity at GSHR by FLIPR assay. Same assay as CHEMBL941945
Format: functional
Remember to put the unit after the number in your answer.

Bench note: what EC50 did COc1ccc(NS(=O)(=O)c2ccc(-c3cccc(C)c3)s2)cc1N1C[C@@H](C)N[C@@H](C)C1 show?
3.98 nM

Suppose we examine the molecule COc1ccc(N2C[C@@H](C)N[C@@H](C)C2)cc1NS(=O)(=O)c1ccc(-c2csc(C)c2)c(F)c1 ; what EC50 value has been reported?
2 nM

I would be grateful if you could share the reported EC50 for C[C@@H]1CN(c2ccc(F)c(NS(=O)(=O)c3ccc(-c4ccccc4)cc3)c2)C[C@H](C)N1 .
31.6 nM

Need EC50, item COc1ccc(N2C[C@@H](C)N[C@@H](C)C2)cc1NS(=O)(=O)c1ccc(-c2ccsc2)s1
5.01 nM

Given the entry COc1ccc(NS(=O)(=O)c2ccc(-c3ccoc3)cc2)cc1N1C[C@@H](C)N[C@@H](C)C1 , report its measured EC50.
12.6 nM

Reported EC50, molecule COc1ccc(N2C[C@@H](C)N[C@@H](C)C2)cc1NS(=O)(=O)c1ccc(-c2cccc(Cl)c2)cc1 : ____
2.51 nM

Given Cc1ccc(N2C[C@@H](C)N[C@@H](C)C2)cc1NS(=O)(=O)c1ccc(-c2cccs2)cc1 , state its recorded EC50.
3.98 nM

Any idea what its EC50 is? The molecule is COc1ccc(NS(=O)(=O)c2ccc(-c3ccc(C)cc3)cc2)cc1N1C[C@@H](C)N[C@@H](C)C1
79.4 nM

Values compiled from ChEMBL document CHEMBL2364335.
